# targetOrTestSystem: mutant MGL (Homo sapiens, UniProt Q99685, L169S/L176S)
# Sequence (Q99685 whole entry L169S/L176S): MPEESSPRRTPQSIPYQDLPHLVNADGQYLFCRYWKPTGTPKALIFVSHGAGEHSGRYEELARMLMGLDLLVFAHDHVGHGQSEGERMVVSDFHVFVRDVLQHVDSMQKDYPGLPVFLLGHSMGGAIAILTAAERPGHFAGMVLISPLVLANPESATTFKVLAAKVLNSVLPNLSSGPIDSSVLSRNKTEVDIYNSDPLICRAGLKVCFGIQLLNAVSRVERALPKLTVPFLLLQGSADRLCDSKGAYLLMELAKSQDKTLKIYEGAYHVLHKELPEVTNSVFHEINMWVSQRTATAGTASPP
# protocol: MGL ThermoFluor assay - mutant
# Type: binding
# measurementParameters: ThermoFluor concentration-response, read-out: MGL mutant ThermoFluor Kd
measuredMetric: Kd (µM)
Your answer should be a plain number; it is taken to be in µM.

The following molecules have reported results that may help.
[[record]]
molecule = "O=C(c1ccccc1)N1CCN(C2CN(C(=O)c3sc4cc(F)ccc4c3C3CCC3)C2)CC1"
targetortestsystem = "mutant MGL (Homo sapiens, UniProt Q99685, L169S/L176S)"
measuredmetric = "Kd"
recordedmeasurement = 0.009

[[record]]
molecule = "O=C(c1ccc(Oc2cc(C(F)(F)F)ccc2F)nc1)N1CC(N2CCN(C(=O)c3nccs3)CC2)C1"
targetortestsystem = "mutant MGL (Homo sapiens, UniProt Q99685, L169S/L176S)"
measuredmetric = "Kd"
recordedmeasurement = 0.088

[[record]]
molecule = "Cc1nc(-c2ccc(F)cc2)sc1C(=O)N1CC(N2CCN(C(=O)c3nccs3)CC2)C1"
targetortestsystem = "mutant MGL (Homo sapiens, UniProt Q99685, L169S/L176S)"
measuredmetric = "Kd"
recordedmeasurement = 0.013

[[record]]
molecule = "O=C(c1nccs1)N1CCN(C2CN(C(=O)c3cc4ccn(-c5ccc(F)cc5)c4cc3F)C2)CC1"
targetortestsystem = "mutant MGL (Homo sapiens, UniProt Q99685, L169S/L176S)"
measuredmetric = "Kd"
recordedmeasurement = 0.005


What does the record list as Kd for O=C(c1ccc2c(ccn2-c2ccc(F)c(F)c2)c1)N1CC(N2CCN(C(=O)c3cscn3)CC2)C1 ?
0.014

Need Kd of O=C(c1ccc(CSc2cccc(Cl)c2)cc1)N1CC(N2CCN(C(=O)C(F)(F)F)CC2)C1 , thanks.
1.11

I'd like to know its Kd. The molecule in question is O=C(c1ccccc1)N1CCN(C2CN(C(=O)c3ccc(C4CCCCC4)cc3)C2)CC1
0.0059

Consider the molecule CC1(C)C=C(c2ccc(C(=O)N3CC(N4CCN(C(=O)c5nccs5)CC4)C3)cc2)CC(C)(C)O1 and give its measured Kd.
0.001

Give its Kd value. Item: O=C(c1ccc(-c2ccc(Br)cc2)cc1)N1CC(N2CCN(C(=O)c3nccs3)CC2)C1
0.01
